Sourced from paper PMC11459967

# ASSAY NOTES: Hamster pharmacokinetics (plasma and lung)
# Type: in vivo
# ASSAY CONTEXT: lung; single IP dose at 10 mg/kg in male hamster; read-out: lung Tmax
EXPERIMENTAL READOUT: Tmax (min)
Number only, in min; omit the unit.

Q: Please report the measured Tmax for O=C(CN1C(=O)C(NC(=O)OCc2ccccc2)COc2ccccc21)NC(CC1CCNC1=O)C(=O)COC(=O)c1c(Cl)cccc1Cl (stereo not shown)
Result: 30

###

# TEST TARGET: cathepsin B (Homo sapiens)
# Construct: purchased RD Systems 953-CY-010
# ASSAY NOTES: Cathepsin B enzymatic assay
# Type: biochemical
EXPERIMENTAL READOUT: IC50 (nM)
Number only, in nM; omit the unit.

Q: Please report the measured IC50 for CC(C)C[C@H](NC(=O)OCc1ccccc1)C(=O)N[C@@H](C[C@@H]1CCNC1=O)C(O)S(=O)(=O)O (stereo partly shown) [GC-376, reference compound]
Result: 37

###

# TEST TARGET: thrombin (Homo sapiens)
# Construct: purchased RD Systems 1473-SE-010
# ASSAY NOTES: Thrombin enzymatic assay
# Type: biochemical
# ASSAY CONTEXT: enzyme assay, at least 10-point dose-response curves in duplicate; read-out: Thrombin IC50
pIC50: −log10 of the molar value.
EXPERIMENTAL READOUT: pIC50

Q: Please report the measured pIC50 for O=C(CN1C(=O)[C@@H](NC(=O)OCc2ccccc2)COc2ccccc21)N[C@@H](C[C@@H]1CCNC1=O)C(=O)COc1cc(C(F)(F)F)nn1-c1ccc(F)cc1
Result: < 4.49

Q: Please report the measured pIC50 for O=C(CN1C(=O)C(NC(=O)OCc2ccccc2)COc2ccccc21)NC(CC1CCNC1=O)C(=O)COC(=O)c1c(Cl)cccc1Cl (stereo not drawn)
Result: < 4.49

Q: Please report the measured pIC50 for O=C(CN1C(=O)[C@@H](NC(=O)c2ccc3ccccc3n2)COc2ccccc21)N[C@@H](C[C@@H]1CCNC1=O)C(=O)COC(=O)c1c(Cl)cccc1Cl
Result: < 4.49

###

# Test system: SARS-CoV-2 Omicron (B.1.1.529)
# ASSAY NOTES: microbe, parasite or virus in culture
# Type: cell-based
# ASSAY CONTEXT: Severe acute respiratory syndrome coronavirus 2, Vero C1008, 48 h; read-out: EC50 viral high-content imaging assay
EXPERIMENTAL READOUT: pEC50
Keep in mind that pEC50 stands for -log10 of concentration in molar terms.

Q: Provide pEC50, system SARS-CoV-2 Omicron (B.1.1.529), entry CC(C)C[C@H](NC(=O)OCc1ccccc1)C(=O)N[C@@H](C[C@@H]1CCNC1=O)C(O)S(=O)(=O)O (some centres unmarked) [GC-376, reference compound]
Result: 6.40

Q: Provide pEC50, system SARS-CoV-2 Omicron (B.1.1.529), entry O=C(CN1C(=O)C(NC(=O)OCc2ccccc2)COc2ccccc21)NC(CC1CCNC1=O)C(=O)COC(=O)c1c(Cl)cccc1Cl (centres unmarked)
Result: 6.05

###

# TEST TARGET: cathepsin B (Homo sapiens, UniProt P07858)
# Construct: purchased RD Systems 953-CY-010
# ASSAY NOTES: Cathepsin B enzymatic assay
# Assay type: biochemical
# ASSAY CONTEXT: as stated in text: no substantial inhibition; read-out: cathepsin B IC50
pIC50: −log10 of the molar value.
EXPERIMENTAL READOUT: pIC50

Q: Provide pIC50, system cathepsin B (Homo sapiens, UniProt P07858), entry O=C(CN1C(=O)C(NC(=O)OCc2ccccc2)COc2ccccc21)NC(CC1CCNC1=O)C(=O)COC(=O)c1c(Cl)cccc1Cl (stereo not shown) [Compound 1]
Result: < 4.82

###

# ASSAY NOTES: Hamster pharmacokinetics (plasma and lung)
# Assay type: in vivo
# ASSAY CONTEXT: plasma; single IP dose at 10 mg/kg in male hamster; read-out: plasma Tmax
EXPERIMENTAL READOUT: Tmax

Q: Please report the measured Tmax for O=C(CN1C(=O)C(NC(=O)OCc2ccccc2)COc2ccccc21)NC(CC1CCNC1=O)C(=O)COC(=O)c1c(Cl)cccc1Cl (stereo not shown) [Compound 1]
Result: 15 min
